# MEASUREMENT_PROTOCOL: Normal 2 Cell Viability Secondary Assay for qHTS Assay for Epigenetic Modulators
# RUN_CONDITIONS: Normal 2 bronchial epithelial viability, MTS, 4 days
The source made the active and inactive calls. Calls come from the whole dose curve.
Outcome codes: 1.0 = active, 0.0 = inactive

O=C(CSc1cccc2cccnc12)NCc1ccccc1; 0.0
CC(C)C(=O)NC(c1ccc(N(C)C)cc1)c1ccc2cccnc2c1O (stereo unspecified); 1.0
O=C(CSc1cccc2cccnc12)N1CCCC1; 0.0
CC(C)C(=O)NC(c1ccco1)c1cc([N+](=O)[O-])c2cccnc2c1O (stereo unspecified); 1.0
CN1C(=S)SC(c2ccccc2)N(C)C1c1ccccc1 (stereo unspecified); 0.0
O=Nc1ccc(O)c2ncccc12; 1.0
